Reported growth by item:
System: A498 renal
test-description: NCI-60 one-dose screen, 48 h (100 = growth as untreated, 0 = no growth, -100 = all killed)
test-settings: 10 µM unless noted
The panel holds about 83,000 compounds, 20% with a hit somewhere; the sample as a whole holds those more often.
The response must be a number in % with no trailing unit.

Any idea what growth was measured for O=C(O)C(C(=O)O)c1cccc2ccccc12 ?
85.6

Any idea what growth was measured for COc1ccccc1Nc1nnc(-c2ccc(Cl)cc2)o1 ?
45.3

Any idea what growth was measured for Nc1cc(N)c(S(=O)(=O)O)cc1N=Nc1cc([N+](=O)[O-])ccc1O ?
103

Any idea what growth was measured for Nc1c(C(=O)Nc2cccc3ccccc23)sc2nc3c(cc12)CCCCCC3 ?
-4.7

Any idea what growth was measured for Cc1ccccc1NC(=O)c1sc2nc(C)c(C(C)O)cc2c1N (stereo unspecified) ?
47.9

Any idea what growth was measured for O=C(/C(=C/c1ccc([N+](=O)[O-])cc1)SCc1ccccc1)c1ccc(Cl)cc1 ?
76.5

Any idea what growth was measured for Nc1c(C(=O)Nc2ccccc2)sc2nc3c(cc12)CN(C(=O)OCc1ccccc1)CC3 ?
44.6

Any idea what growth was measured for Cc1cccc(C)c1Nc1nnc(-c2ccc(F)cc2)o1 ?
103

Any idea what growth was measured for CC(/C=C/c1ccccc1)=N/NC(=O)c1ccncc1 ?
95

Any idea what growth was measured for COc1ccc2nc(-c3ccc(Cl)cc3)cc(-c3nnc(SCC(=O)Nc4ccc(/C(C)=N\O)cc4)o3)c2c1 ?
64

Any idea what growth was measured for COc1ccc(Cl)c([N+](=O)[O-])c1 ?
113

###

Reported growth by item:
Tested on: NCI/ADR-RES ovarian
test-description: NCI-60 one-dose screen, 48 h (100 = growth as untreated, 0 = no growth, -100 = all killed)
test-settings: 10 µM unless noted
Compounds without any hit were thinned out: in the full panel of roughly 83,000, 20% have a hit. Active and inactive are the calls of the source. The calls were made as follows: active = growth percent below 10; inactive = the rest.

Examples with answers:
>>> recorded_result("CO[C@@]12C=C[C@@]34CCC(=O)N3c3ccccc3[C@@H](O1)C4C2")
"97.7% (inactive)"
>>> recorded_result("O=C1CCC23OC(C(O)c4ccccc4N12)C1C(Br)=NOC13 (centres undefined)")
"106% (inactive)"
>>> recorded_result("O=[N+]([O-])c1ccc(N=Nc2c(O)c(N=Nc3cc([N+](=O)[O-])cc([N+](=O)[O-])c3O)cc(N=Nc3cc(S(=O)(=O)O)cc4cc(S(=O)(=O)O)cc(O)c34)c2O)cc1")
"103% (inactive)"
>>> recorded_result("CN1CCN(S(=O)(=O)O[C@@H]2C(=O)N(c3cc4c5ccccc5ccc4c4ccccc34)[C@H]2c2ccc(F)cn2)CC1")
"92.2% (inactive)"
>>> recorded_result("COc1ccc(C2N(c3cc(OC)c(OC)c(OC)c3)C(=O)C2(F)F)cc1F (centres undefined)")
"32.9% (inactive)"

As a next step, examine the compound that follows.
Any idea what growth was measured for COc1ccc2[nH]c(=O)c(/C=C/C(=O)c3ccccc3OC)cc2c1 ?
10.4% (inactive)

###

Tested on: RXF 393 renal
test-description: NCI-60 one-dose screen, 48 h (100 = growth as untreated, 0 = no growth, -100 = all killed)
test-settings: 10 µM unless noted
The panel holds about 83,000 compounds, 20% with a hit somewhere; the sample as a whole holds those more often. Active and inactive are the calls of the source. The calls were made as follows: active = growth percent below 10; inactive = the rest.
measurement-kind: growth

Examples with answers:
>>> recorded_result("C=C1C(=O)O[C@H]2[C@H]1CC/C(COC(=O)c1cccnc1)=C\\CC[C@@]1(C)O[C@@H]21")
"46% (inactive)"
>>> recorded_result("Cn1c2c(c3ccc(-c4ccn[nH]4)cc3c1=O)C(=O)c1ccccc1-2")
"91.5% (inactive)"
>>> recorded_result("O=C1c2ccccc2C(=O)c2c1oc1c2c(=O)[nH]c2ccccc21")
"97.2% (inactive)"

Any idea what growth was measured for c1ccc2nc(N3CCOCC3)c(N3CCCCC3)nc2c1 ?
98% (inactive)

Any idea what growth was measured for COc1ccc([C@H]2[C@@H](F)C(=O)N2c2cc(OC)c(OC)c(OC)c2)cc1F ?
28.8% (inactive)

###

Reported growth by item:
Tested on: HS 578T breast
test-description: NCI-60 one-dose screen, 48 h (100 = growth as untreated, 0 = no growth, -100 = all killed)
test-settings: 10 µM unless noted
The panel holds about 83,000 compounds, 20% with a hit somewhere; the sample as a whole holds those more often. Active and inactive are the calls of the source. How the source made its calls: active means growth percent below 10; inactive means the rest.

Examples with answers:
>>> recorded_result("Nc1c(C(=O)c2ccccc2)sc2nc(-c3cc4ccccc4o3)cc(-c3ccc(Cl)cc3)c12")
"136% (inactive)"
>>> recorded_result("CC(C)NS(=O)(=O)c1cccc(-c2ccc3c4c(n(CCCN(C)C)c(=O)c3c2)-c2ccccc2C4=O)c1")
"99.8% (inactive)"
>>> recorded_result("Nc1cccc(C(=O)Nc2ccc3c(O)c(N=Nc4ccc(N=Nc5ccc(S(=O)(=O)O)cc5)cc4)c(S(=O)(=O)O)cc3c2)c1")
"103% (inactive)"
>>> recorded_result("CCCn1c2cc(OCc3cn(-c4ccc(Br)cc4)nn3)ccc2c2ccnc(C)c21")
"66.9% (inactive)"
>>> recorded_result("Cc1ccccc1NC(=O)c1sc2nc(C)c(C(C)O)cc2c1N (stereo not drawn)")
"53.3% (inactive)"

Any idea what growth was measured for CN1CCN(CC#CCOC(=O)CNC(=O)[C@]23CCC(C)(C)C[C@H]2C2=CC[C@@H]4[C@@]5(C)CC[C@H](O)C(C)(C)[C@@H]5CC[C@@]4(C)[C@]2(C)CC3)CC1 ?
95.5% (inactive)

Any idea what growth was measured for COc1ccccc1C(=O)/C=C/c1cc2cccc(OC)c2[nH]c1=O ?
39.3% (inactive)

Any idea what growth was measured for COC(=O)/C=C1\SC(=Nc2cccc(OC)c2)N(CCc2c[nH]c3ccccc23)C1=O ?
81% (inactive)

###

System: ACHN renal
test-description: NCI-60 one-dose screen, 48 h
test-settings: 10 µM unless noted
Compounds without any hit were thinned out: in the full panel of roughly 83,000, 20% have a hit. The source made the active and inactive calls. Rule for the calls: active = growth percent below 10; inactive = the rest.
Tick one outcome: 1.0 (active), 0.0 (inactive)

As a guide, the following entries are already answered.
>>> group("COc1ccc(-c2cc(-c3nnc(SCC(=O)Nc4ccc(/C(C)=N\\O)cc4)n3-c3ccccc3)c3cc(OC)ccc3n2)cc1")
0.0
>>> group("COc1ccc(-c2nc(C#N)c(NCC(c3ccco3)N3CCCC3)o2)cc1 (centres undefined)")
0.0
>>> group("COc1cc([C@H](C)c2ccc3ccccc3c2)cc(OC)c1OC")
0.0
>>> group("COC(=O)c1nc(-c2ccccc2)oc1S(=O)(=O)n1nc(C)cc1N")
1.0
>>> group("CNS(=O)(=O)c1cccc(-c2ccc3c4c(n(C)c(=O)c3c2)-c2ccccc2C4=O)c1")
1.0
>>> group("Cc1c(Cl)cccc1NC(=O)c1sc2nc3c(cc2c1N)CCCCC3")
0.0
>>> group("CCCNc1nc(C)[nH]c(=O)c1S")
0.0
>>> group("N#Cc1ccc(Oc2ccc3ccc(=O)oc3c2)cc1")
0.0

Could you check what this test reported for O=C1C(=O)c2c(nc3ccc(C(F)(F)F)cn23)-c2ccccc21 ?
1.0

Could you check what this test reported for O=C(Nc1cc(Br)ccn1)c1cc2cc(Nc3nc(-c4ccccc4)nc4ccccc34)ccc2oc1=O ?
0.0

Could you check what this test reported for COC(=O)c1ccc(NC(=O)CSc2nc(-c3ccc(F)cc3)nc3ccccc23)cc1 ?
0.0

Could you check what this test reported for CN1CCN(C(=O)[C@@]2(C)CC[C@]3(C)CC[C@]4(C)C(=CC[C@@H]5[C@@]6(C)CC[C@H](OC(=O)c7cccnc7)C(C)(C)[C@@H]6CC[C@]54C)[C@@H]3C2)CC1 ?
0.0

Could you check what this test reported for COc1cc(C)ccc1Oc1nc(Nc2ccc(N3CCOCC3)cc2)ncc1N=Cc1cc(C(F)(F)F)cc(C(F)(F)F)c1 ?
0.0

Could you check what this test reported for Nc1ccccc1NC(=O)c1ccc(CSc2nc(N3CCOCC3)c3cccn3n2)cc1 ?
0.0

Could you check what this test reported for COc1ccc(N(C)c2nc(Cl)nc3ccn(C)c23)cc1 ?
0.0

Could you check what this test reported for COC(=O)[C@]1(C)CCC[C@]2(C)[C@H]3C[C@H]4C(C(C)C)=C[C@]3(CC[C@H]21)[C@@H]1C(=O)N(CCC#N)C(=O)[C@@H]14 ?
0.0

Could you check what this test reported for COc1ccc(Sc2[nH]c(C(C)=O)c3ccccc23)cc1 ?
0.0

Could you check what this test reported for N#CC1C(c2ccc(Cl)cc2)=Nc2c(c(-c3ccccc3)nn2-c2ccccc2)C12C(=O)Nc1ccc(Cl)cc12 (centres undefined) ?
0.0

Could you check what this test reported for C=CCn1c(SCC(=O)Nc2ccc(C(=O)/C=C/c3cc(OC)c(OC)c(OC)c3)cc2)nnc1-c1ccc(Cl)cc1 ?
0.0
